The following molecules are listed with their measured melting point values.

- MOLECULE: "COc1cc2c(c(O)c1OC)CCN(C)C2C (stereo not drawn)"
  melting point: "152 °C"
- MOLECULE: "NNC(=O)c1cccc(F)c1"
  melting point: "138 to 139 °C"
- MOLECULE: "CC(=O)OC1C(=O)C2=C(C(=O)C13CC3C)C(O)C(O)C1C(C)(C)CCCC21C (stereo not drawn)"
  melting point: "180 to 182 °C"

---

The following molecules are listed with their measured melting point values.

- CPD SMILES: "Cc1nc2ccccc2n1CC(=O)O"
  melting point: "260 to 262 °C"
- CPD SMILES: "COc1cc(OC)c(C#N)c(OC)c1"
  melting point: "142 to 145 °C"
- CPD SMILES: "O=[N+]([O-])c1cccc(OCCCCBr)c1"
  melting point: "62 to 63 °C"
